Biological target: T1, gp140UG37 (subtype A), gp140 envelope glycoprotein from the HIV-1 group M A-clade isolate 92UG037 (HIV-1)
T1 construct: also called UG037 gp140/420 (A); gp140-UG037
Assay: SPR
Measure Name: kon (M⁻¹ s⁻¹)
Numbers only, in M⁻¹ s⁻¹.

L92E7 (VHH, Purified by IMAC; tags not written into the chain) VHH: EVQLVESGGGLVQPGGSLRLSCAASGNIVSIDAAGWFRQAPGKQREPVATILTGGATNYADSVKGRFTISRDNAKNTVYLQMSSLKPEDTAVYYCYAPMIYYGGRYSDYWGQGTQVTVSS; 22200
L91H9 (VHH, Purified by IMAC; tags not written into the chain) VHH: EVQLVESGGGLVQAGGSLRLSCAVSGATFDDYAIGWFRQAPGKEREGVSYIGCNDGSTYYAGSVKGRFTISCDYAKNTVYLQMNSLKPEDTAVYYCAAAAQWATIRWIHEYDYDTWGQGTQVTVSS; 9610

Now take the following binder into account.
**Query** Would you mind telling me what kon value was observed for L82B4F (VHH, Family member of L81H9; tags not written into the chain) VHH: EVQLVESGGGLVQAGGSLRLSCAASGFTSDDYAIGWFRRAPGKEREGVSYISIEDGSTYSADSVKGRFTISSDYAKNTVYLQMNGLKPEDTAVYYCAAAILGDSVRWLQEYDYDYWGQGTQVTVSS ?
**Result** 10500
